Tested on: CRL-7250
Assay: Cytotoxic Profiling of Annotated Libraries Using Quantitative High-Throughput Screening (AID 1296008); also: % is scaled to controls: 0 for no effect and ±100 for the full control effect; nearly all actives have a fitted effect of over 60% in size
Conditions: Five cell lines viability, CellTiter-Glo ATP luminescence, 48-72 h; active compounds read low
Results filed as inconclusive are left out.
measured-property: max response (%)
Numbers only, in %.

C=CCC1=C[C@]2(OC)[C@H](C)[C@@H](c3ccc(O)c(OC)c3)O[C@]2(OC)CC1=O : -0.729
CC1C(OC(=O)c2ccccc2)C(O)C2C(C(=O)O)=COC(OC3OC(CO)C(O)C(O)C3O)C12 (stereo not given) : 3.33

Please look at the items below and tell me max response for each one, in order.
1. CC1=CC(=O)C(=C(C)C)CC2C1CCC2(C)O (stereo not given)
2. CC1C=CC2CCCCC2C1CCC1CC(O)CC(=O)O1 (stereo not given)
3. C=C1C(=O)OC2/C=C(\CO)CC/C=C(\C=O)CC(OC(=O)CC(C)C)C12 (stereo not given)

*A*
1. -11.2
2. -5.84
3. -22.7
